- SYSTEM_UNDER_TEST: T1, human IL-23 (human, UniProt P29460 23-328; Q9NPF7 20-189)
- T1 construct: Recombinant (Ebioscience); HIS-tagged in flow cytometry, biotinylated in some assays; also called hIL-23; rhIL-23
- T1 sequence 1: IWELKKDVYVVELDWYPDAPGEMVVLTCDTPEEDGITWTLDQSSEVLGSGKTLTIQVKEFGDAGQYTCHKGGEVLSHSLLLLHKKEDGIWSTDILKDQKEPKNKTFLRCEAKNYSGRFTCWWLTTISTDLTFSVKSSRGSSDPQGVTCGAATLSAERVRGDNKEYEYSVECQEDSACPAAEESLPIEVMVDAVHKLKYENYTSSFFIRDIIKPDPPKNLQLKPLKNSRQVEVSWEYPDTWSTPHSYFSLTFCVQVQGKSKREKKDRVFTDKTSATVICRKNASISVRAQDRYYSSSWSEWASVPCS
- T1 sequence 2: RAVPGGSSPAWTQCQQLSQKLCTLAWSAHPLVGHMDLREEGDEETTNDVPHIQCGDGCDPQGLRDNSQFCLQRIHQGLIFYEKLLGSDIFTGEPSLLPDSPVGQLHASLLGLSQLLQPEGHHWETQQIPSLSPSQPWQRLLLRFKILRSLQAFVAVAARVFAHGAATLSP
- PROCEDURE_DETAILS: ELISA, coated IL-23

BINDER | binding result
Antibody 72 (antibody, human IgG1, kappa, V domains shown) VH: EVQLVQSGAEVKKPGATVKISCKASGYTFSDYYLHWVRQRPGKGLEWMGWIDPENGDTEYAPKFQGRVTITADTSTDTGYLELSSLRSEDTAVYYCAANKELRYFDVWGQGTLVTVSS VL: DIQMTQSPSSVSASVGDRVTITCRASQSISINLHWYQQKPGKAPKLLIKFASQSISGVPSRFSGYGSGTDFSLTINSLQPEDFARYYCQQSNSFPLTFGGGTKVEIKR | binds
Antibody 63 (antibody, human IgG1, kappa, V domains shown) VH: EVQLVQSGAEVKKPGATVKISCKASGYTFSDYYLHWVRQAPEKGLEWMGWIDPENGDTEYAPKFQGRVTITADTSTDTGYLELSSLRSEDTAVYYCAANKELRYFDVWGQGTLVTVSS VL: DIQMTQSPSSVSASVGDRVTITCRASQSISINLHWYQQKPGKAPKLLIYFASQSISGVPSRFSGYGSGTDFSLTINSLQPEDFATYYCQQSNSFPLTFGGGTKVEIKR | binds
Antibody 75 (antibody, human IgG1, kappa, V domains shown) VH: EVQLVQSGAEVKKPGATVKISCKASGYTFSDYYLHWVRQRPEKGLEWMGWIDPENGDTEYAPKFQGKVTITADTSTDTGYLELSSLRSEDTAVYYCAANKELRYFDVWGQGTLVTVSS VL: DIQMTQSPSSVSASVGDRVTITCRASQSISINLHWYQQKPGKAPKLLIKFASQSISGVPSRFSGYGSGTDFSLTINSLQPEDFARYYCQQSNSFPLTFGGGTKVEIKR | binds
Antibody 66 (antibody, human IgG1, kappa, V domains shown) VH: EVQLVQSGAEVKKPGATVKISCKASGYTFSDYYLHWVRQAPGKGLEWMGWIDPENGDTEYAPKFQGRVTITADTSTDTGYLELSSLRSEDTAVYYCAANKELRYFDVWGQGTLVTVSS VL: DIQMTQSPSSVSASVGDRVTITCRASQSISINLHWYQQKPGKAPKLLIYFASQSISGVPSRFSGSGSGTDFSLTINSLQPEDFARYYCQQSNSFPLTFGGGTKVEIKR | binds
